Sourced from ChEMBL document CHEMBL5113515

TEST_DESCRIPTION: Half life in overnight fasted mouse at 1 mg/kg, iv
Assay type: ADME, organism-based
CONDITION_INFO: in vivo
MEASUREMENT_LABEL: half-life (h)
Dear colleague, please return just the value in h, with no unit written.

[ask] Supply measured half-life of C=C(C)[C@@H]1CC[C@]2(NCCN3CCS(=O)(=O)CC3)CC[C@]3(C)[C@H](CC[C@@H]4[C@@]5(C)CC=C(C6=CC[C@@](CF)(C(=O)O)CC6)C(C)(C)[C@@H]5CC[C@]43C)[C@@H]12 [FIPRAVIRIMAT] in your reply.
[reply] 4.6

====

EC50 values for the compounds below.
System: Human immunodeficiency virus 1
TEST_DESCRIPTION: Antiviral activity against HIV1 wild type NL (4 to 3) infected in human MT2 cells measured after 4 to 5 days by dual-luciferase reporter assay
Format: functional, organism-based
CONDITION_INFO: Human immunodeficiency virus 1, MT2
Dear colleague, please return just the value in nM, with no unit written.

Sample records with EC50:
[ask] Supply measured EC50 of C=C(C)[C@@H]1CC[C@]2(NCCN3CCS(=O)(=O)CC3)CC[C@]3(C)[C@H](CC[C@@H]4[C@@]5(C)CC=C(C6=CCC(CC)(C(=O)O)CC6)C(C)(C)[C@@H]5CC[C@]43C)[C@@H]12 (some centres undefined) in your reply.
[reply] 3.6

[ask] Supply measured EC50 of C=C(C)[C@@H]1CC[C@]2(NCCN3CCS(=O)(=O)CC3)CC[C@]3(C)[C@H](CC[C@@H]4[C@@]5(C)CC=C(C6=CCC(CC(=O)O)(C(=O)O)CC6)C(C)(C)[C@@H]5CC[C@]43C)[C@@H]12 (some centres undefined) in your reply.
[reply] 3.5

[ask] Supply measured EC50 of C=C(C)[C@@H]1CC[C@]2(NCCN3CCS(=O)(=O)CC3)CC[C@]3(C)[C@H](CC[C@@H]4[C@@]5(C)CC=C(C6=CCC(CC(=O)O)CC6)C(C)(C)[C@@H]5CC[C@]43C)[C@@H]12 (some centres undefined) in your reply.
[reply] 13.1

[ask] Supply measured EC50 of C=C(C)[C@@H]1CC[C@]2(NCCN3CCC(S(C)(=O)=O)CC3)CC[C@]3(C)[C@H](CC[C@@H]4[C@@]5(C)CC=C(C6=CCC(CC(F)F)(C(=O)O)CC6)C(C)(C)[C@@H]5CC[C@]43C)[C@@H]12 (some centres undefined) in your reply.
[reply] 1.4

[ask] Supply measured EC50 of C=C(C)[C@@H]1CC[C@]2(NCCN3CCS(=O)(=O)CC3)CC[C@]3(C)[C@H](CC[C@@H]4[C@@]5(C)CC=C(c6ccc(C(=O)O)cc6)C(C)(C)[C@@H]5CC[C@]43C)[C@@H]12 in your reply.
[reply] 5

More entries:
[ask] Supply measured EC50 of C=C(C)[C@@H]1CC[C@]2(NCCN3CCC(S(C)(=O)=O)CC3)CC[C@]3(C)[C@H](CC[C@@H]4[C@@]5(C)CC=C(C6=CC[C@@](CF)(C(=O)O)CC6)C(C)(C)[C@@H]5CC[C@]43C)[C@@H]12 in your reply.
[reply] 1.9

[ask] Supply measured EC50 of C=C(C)[C@@H]1CC[C@]2(NCCN3CCS(=O)(=O)CC3)CC[C@]3(C)[C@H](CC[C@@H]4[C@@]5(C)CC=C(C6=CCC(CF)(C(=O)O)CC6)C(C)(C)[C@@H]5CC[C@]43C)[C@@H]12 (some centres undefined) in your reply.
[reply] 1.3

[ask] Supply measured EC50 of C=C(C)[C@@H]1CC[C@]2(NCCN3CCS(=O)(=O)CC3)CC[C@]3(C)[C@H](CC[C@@H]4[C@@]5(C)CC=C(C6=CCC(CC7CC7)(C(=O)O)CC6)C(C)(C)[C@@H]5CC[C@]43C)[C@@H]12 (some centres undefined) in your reply.
[reply] 4.5

[ask] Supply measured EC50 of C=C(C)[C@@H]1CC[C@]2(NCCN3CCC(S(C)(=O)=O)CC3)CC[C@]3(C)[C@H](CC[C@@H]4[C@@]5(C)CC=C(C6=CCC(CCCOC)(C(=O)O)CC6)C(C)(C)[C@@H]5CC[C@]43C)[C@@H]12 (some centres undefined) in your reply.
[reply] 2

[ask] Supply measured EC50 of C=C(C)[C@@H]1CC[C@]2(NCCN3CCC(S(C)(=O)=O)CC3)CC[C@]3(C)[C@H](CC[C@@H]4[C@@]5(C)CC=C(C6=CCC(CO)(C(=O)O)CC6)C(C)(C)[C@@H]5CC[C@]43C)[C@@H]12 (some centres undefined) in your reply.
[reply] 1.1
